target: AP-2 complex subunit beta (Homo sapiens); assay: beta-arrestin/AP2 interaction blockers – biochemical, validation set, GST-AP2 beads, flow cytometry, pilot screen (AID 504541); conditions: FITC arrestin peptide, at 10 µM, stronger effect = higher value, AP2 beta2 appendage fragment, R879A mutant;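 note: AP2 carries R879A mutation and is captured from E. coli lysate; bead-bound FITC arrestin peptide fluorescence measuring arrestin peptide binding to AP2; 0% = DMSO wells and 100% = excess unlabeled arrestin peptide control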
Parameter inhibition: see the listing below.
Kindly provide the numeric value in % only, without the unit symbol.

Study these solved cases before continuing.
compound: CC(C)(C)C(=O)NCCCNc1ccc([N+](=O)[O-])cc1
unit info: %
reading: 22
//
compound: CCc1cc(=O)oc2cc(OCc3nn[nH]n3)ccc12
unit info: %
reading: 9.23
//
compound: CCCc1cc(=O)[nH]c(=S)[nH]1
unit info: %
reading: -5.08
//
compound: CCOC(=O)C(NC(=O)CCC(=O)Nc1ccc(S(N)(=O)=O)cc1)C(O)c1ccccc1 (centres undefined)
unit info: %
reading: 5.81
//
compound: CCC(C(=O)OCCN(CC)CC)c1ccccc1 (centres undefined)
unit info: %
reading: 19.7
//
compound: CC(=O)N1CCn2c3c(c4cc(C)ccc42)CCCC31 (centres undefined)
unit info: %
reading: 61.1

The measured inhibition that COc1ccc(C2CC(c3c(O)cc(C)oc3=O)=NCCS2)c(OC)c1 (centres undefined) showed for AP-2 complex subunit beta (Homo sapiens) is 1.7

The measured inhibition that O=C(O)c1cccnc1Nc1cccc(C(F)(F)F)c1 showed for AP-2 complex subunit beta (Homo sapiens) is 47.1

The measured inhibition that CC(=O)C1=C(O)C(=O)N(CC(=O)O)C1c1ccccc1Cl (centres undefined) showed for AP-2 complex subunit beta (Homo sapiens) is 1.11

The measured inhibition that O=C(COc1ccc2c(-c3ccccc3)cc(=O)oc2c1)NCc1cccs1 showed for AP-2 complex subunit beta (Homo sapiens) is 26.5

----------
molecular target: Integrin beta-1 (Homo sapiens) + Integrin alpha-4 (Homo sapiens) (UniProt P13612+P05556); assay: alpha4beta1 integrin LIBS antibody binding reduction – U937 cells, HUTS-21 mAb, flow cytometry, validation set, VLA-4 allosteric modulator project, pilot screen (AID 2674); conditions: HUTS-21 LIBS mAb binding, at 6.7 µM, stronger effect = higher value, binding induced by LDV ligand;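 note: antibody binding induced by the VLA-4 ligand LDV present at three times its Kd; 0% = LDV ligand with antibody and no compound and 100% = antibody without LDV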
Sequence (P05556 whole entry, looked up): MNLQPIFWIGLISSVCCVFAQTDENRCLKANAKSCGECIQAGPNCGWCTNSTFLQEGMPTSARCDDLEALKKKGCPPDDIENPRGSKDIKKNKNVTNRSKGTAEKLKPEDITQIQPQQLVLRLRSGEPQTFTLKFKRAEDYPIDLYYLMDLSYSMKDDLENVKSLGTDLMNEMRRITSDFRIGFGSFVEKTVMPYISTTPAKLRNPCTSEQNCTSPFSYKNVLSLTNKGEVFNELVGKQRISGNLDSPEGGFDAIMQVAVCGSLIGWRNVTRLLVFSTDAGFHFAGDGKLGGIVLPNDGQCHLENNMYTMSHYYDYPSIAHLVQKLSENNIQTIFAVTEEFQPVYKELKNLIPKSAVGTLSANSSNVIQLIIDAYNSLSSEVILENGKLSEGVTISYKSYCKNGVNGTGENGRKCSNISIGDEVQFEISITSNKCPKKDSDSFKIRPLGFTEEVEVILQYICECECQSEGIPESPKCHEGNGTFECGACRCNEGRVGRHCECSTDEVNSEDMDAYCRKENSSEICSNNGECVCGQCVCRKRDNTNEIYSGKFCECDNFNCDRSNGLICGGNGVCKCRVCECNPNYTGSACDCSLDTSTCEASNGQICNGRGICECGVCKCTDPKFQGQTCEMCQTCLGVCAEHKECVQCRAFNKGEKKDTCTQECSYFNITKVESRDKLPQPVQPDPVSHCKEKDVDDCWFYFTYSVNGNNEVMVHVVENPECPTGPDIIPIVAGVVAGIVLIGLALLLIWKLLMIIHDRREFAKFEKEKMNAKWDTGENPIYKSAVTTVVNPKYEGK
Sequence (P13612 whole entry, looked up): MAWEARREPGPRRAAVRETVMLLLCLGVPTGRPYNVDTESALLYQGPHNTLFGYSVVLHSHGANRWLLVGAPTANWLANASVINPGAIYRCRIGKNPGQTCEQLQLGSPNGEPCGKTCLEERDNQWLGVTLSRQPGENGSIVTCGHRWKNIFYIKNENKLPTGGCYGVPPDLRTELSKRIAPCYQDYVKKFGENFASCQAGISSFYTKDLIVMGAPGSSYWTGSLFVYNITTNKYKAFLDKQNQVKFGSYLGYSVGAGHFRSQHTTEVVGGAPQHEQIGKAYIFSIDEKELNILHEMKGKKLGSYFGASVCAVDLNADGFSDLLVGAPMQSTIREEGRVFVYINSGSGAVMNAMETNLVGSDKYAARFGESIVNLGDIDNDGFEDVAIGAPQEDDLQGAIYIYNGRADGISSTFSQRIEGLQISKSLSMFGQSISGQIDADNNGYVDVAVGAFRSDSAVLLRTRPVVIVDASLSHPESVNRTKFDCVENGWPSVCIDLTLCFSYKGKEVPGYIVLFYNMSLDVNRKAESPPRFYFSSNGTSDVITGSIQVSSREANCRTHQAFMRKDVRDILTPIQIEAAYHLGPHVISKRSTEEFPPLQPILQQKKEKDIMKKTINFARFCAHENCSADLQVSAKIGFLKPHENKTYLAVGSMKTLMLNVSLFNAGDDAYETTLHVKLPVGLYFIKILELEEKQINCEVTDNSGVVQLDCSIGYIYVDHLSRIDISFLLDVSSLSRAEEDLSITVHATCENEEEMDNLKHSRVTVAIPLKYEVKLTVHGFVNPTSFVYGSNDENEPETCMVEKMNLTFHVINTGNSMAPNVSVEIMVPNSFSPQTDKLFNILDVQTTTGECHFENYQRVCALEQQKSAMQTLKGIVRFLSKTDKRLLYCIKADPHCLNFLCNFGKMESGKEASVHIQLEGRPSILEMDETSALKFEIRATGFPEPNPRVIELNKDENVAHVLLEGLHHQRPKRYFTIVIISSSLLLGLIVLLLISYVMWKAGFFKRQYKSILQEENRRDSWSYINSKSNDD
Parameter inhibition: see the listing below.
Kindly provide the numeric value in % only, without the unit symbol.

molecule: COc1ccc(-n2cc(CNCc3cccnc3)c(-c3cccc(F)c3)n2)cc1
inhibition (%): -4.6

// inhibition lookup, molecule = CCOC(=O)C(Cc1cc(C(C)=O)ccc1OC(C)C)C(=O)OCC , result: -1.3

// inhibition lookup, molecule = CCC(C)NCCOCCOc1ccc(Cl)cc1Br (stereo unspecified) , result: 0.25

// inhibition lookup, molecule = O=C(Nc1ccc(F)c([N+](=O)[O-])c1)c1ccc2c(c1)OCCO2 , result: -1.49

// inhibition lookup, molecule = CCn1c(N2CCN(CC(=O)c3c(C)n(C)c4ccc(OC)cc34)CC2)nc2c1c(=O)[nH]c(=O)n2C , result: -18.1

// inhibition lookup, molecule = Fc1ccc(NC(=S)Nc2ccccc2Cl)cc1 , result: 20

// inhibition lookup, molecule = CC(=O)Nc1ccccc1C(=O)C(=O)Nc1ccccc1 , result: 6.4

// inhibition lookup, molecule = CC1(C)Cc2ccccc2-c2nc(-c3ccccc3)oc(=O)c21 , result: 2.29

----------
target: GTPase HRas (Homo sapiens) (UniProt P01112); assay: Ras wt fluorescent GTP loading blockade – biochemical, wildtype, multiplex bead flow cytometry, dose response (AID 1335); settings: bead-based flow cytometry, Bodipy-GTP binding to GST-Ras; at 100 µM (top of the series) unless noted
Sequence (P01112 whole entry, looked up): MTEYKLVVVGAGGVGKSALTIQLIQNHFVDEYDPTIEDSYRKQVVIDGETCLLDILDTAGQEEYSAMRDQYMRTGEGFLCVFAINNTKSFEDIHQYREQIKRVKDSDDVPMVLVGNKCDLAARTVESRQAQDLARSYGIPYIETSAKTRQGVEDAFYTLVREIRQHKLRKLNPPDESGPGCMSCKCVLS
Parameter GTP binding, percent of control: see the listing below.
Kindly provide the numeric value in % only, without the unit symbol.

Study these solved cases before continuing.
compound: O=C(C#Cc1cccc([N+](=O)[O-])c1)c1ccccc1
GTP binding, percent of control (%): 81
//
compound: O=C(O)CSc1ccc2nnc(-c3cccnc3)n2n1
GTP binding, percent of control (%): 73.9
//
compound: CC(=O)NC1CC2CCCC(C1)N2C(=O)Nc1ccc(Cl)c(C(F)(F)F)c1 (configuration not stated)
GTP binding, percent of control (%): 146
//
compound: O=S1(=O)N=C(N(CCO)/N=C/c2ccccc2)c2ccccc21
GTP binding, percent of control (%): 63.2
//
compound: COc1ccccc1OCc1ccoc1C(=O)O
GTP binding, percent of control (%): 87

Now turn to the next compound.
// GTP binding, percent of control lookup, compound = COc1ccccc1OCCSc1nc2ccccc2n1CC(=O)O , result: 87.1

----------
test: calorie-restriction mimetic ROS inhibitors, yeast – validation compound set, pilot screen (AID 2706);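 note: yeast exposed to compound for one week at 30 degrees C before staining; 100% = mean of all compound wells on the same plate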; conditions: S. cerevisiae aging, superoxide DHE fluorescence; at 10 µM; stronger effect = lower value
Parameter superoxide response (% of plate): see the listing below.
Kindly provide the numeric value in % only, without the unit symbol.

molecule: COc1cccc(CC(=O)NCC2COc3ccccc3O2)c1OC (configuration not stated)
reading: 92.8
//
molecule: OCCN(CCO)c1nc(N2CCCCC2)c2nc(N(CCO)CCO)nc(N3CCCCC3)c2n1
reading: 98
//
molecule: COc1ccc(Cc2noc(CN(C)CC3(N4CCOCC4)CCCCC3)n2)cc1OC
reading: 108
//
molecule: Cc1cccc2c1CC(C)(C)N/C2=C\C(N)=O
reading: 99
//
molecule: OCCN1CCN(CCCN2c3ccccc3Sc3ccc(C(F)(F)F)cc32)CC1
reading: 90.7
//
molecule: COc1cc(/C=C/C(=O)O)cc(S(=O)(=O)NCCCO)c1OC
reading: 95.1
//
molecule: COC(=O)[C@H]1[C@H]2C[C@@H]3c4[nH]c5cc(OC)ccc5c4CCN3C[C@H]2C[C@@H](OC(=O)c2ccc(N)cc2)[C@@H]1OC
reading: 97
//
molecule: O=C(NCCC(c1ccccc1)c1ccco1)c1cccs1 (configuration not stated)
reading: 105
//
molecule: CC12CN3CC(C)(CN(C1)C3c1ccc(Br)cc1O)C2 (configuration not stated)
reading: 127
//
molecule: COCCn1c(SCCOc2ccccc2)nc2ccccc2c1=O
reading: 104

// superoxide response (% of plate) lookup, molecule = O=C(/C=C/c1ccc(F)cc1)N1CC[C@@]2(O)CCCC[C@H]2C1 , result: 98.4

// superoxide response (% of plate) lookup, molecule = c1ccc2c(c1)CCOC2CNCCCN1CCCCC1 (configuration not stated) , result: 110

// superoxide response (% of plate) lookup, molecule = N/C(=N\OC(=O)c1cccc(Br)c1)c1ccncc1 , result: 106

----------
target: Integrin beta-1 (Homo sapiens) + Integrin alpha-4 (Homo sapiens) (UniProt P13612+P05556); test: alpha4beta1 integrin LIBS antibody binding reduction – U937 cells, HUTS-21 mAb, flow cytometry, validation set, VLA-4 allosteric modulator project, pilot screen (AID 2674); details: HUTS-21 LIBS mAb binding, at 6.7 µM, stronger effect = higher value, binding induced by LDV ligand;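 note: antibody binding induced by the VLA-4 ligand LDV present at three times its Kd; 0% = LDV ligand with antibody and no compound and 100% = antibody without LDV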
Parameter inhibition: see the listing below.
Kindly provide the numeric value in % only, without the unit symbol.

Study these solved cases before continuing.
molecule: Nc1nc(Cl)nc2c1ncn2[C@H]1C[C@H](O)[C@@H](CO)O1
test target: Integrin beta-1 (Homo sapiens) + Integrin alpha-4 (Homo sapiens) (UniProt P13612+P05556)
unit info: %
reading: 0.59
//
molecule: O=C(O)C1CSC(c2ccc3c(c2)OCO3)N1 (centres undefined)
test target: Integrin beta-1 (Homo sapiens) + Integrin alpha-4 (Homo sapiens) (UniProt P13612+P05556)
unit info: %
reading: -7.12
//
molecule: CC(=O)[C@@H]1[C@@H](C(=O)c2ccc(C)cc2)[C@]2(C(=O)Nc3ccccc32)[C@H]2C=Cc3cc(F)ccc3N12
test target: Integrin beta-1 (Homo sapiens) + Integrin alpha-4 (Homo sapiens) (UniProt P13612+P05556)
unit info: %
reading: -119

// inhibition lookup, molecule = CC(=O)NS(=O)(=O)c1ccc(N)cc1 , result: 0.59

// inhibition lookup, molecule = Cc1ccc2c(c1)C(C)(C)[C@]1(C)NC(=O)CCN21 , result: -25

// inhibition lookup, molecule = CCc1nc(N)nc(N)c1-c1ccc(Cl)cc1 , result: 5.49

----------
test system: anti-desmoglein-3 scFv antibody binding to human DSG3; assay: blockers of pathogenic pemphigus antibody–desmoglein-3 binding – biochemical, validation compound set, bead-based, flow cytometry, pilot screen (AID 588368); details: Protein G beads, DSG3-Fc, scFv-GFP binding, at 10 µM, stronger effect = lower value;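 note: signal is the median channel fluorescence of bead-bound GFP antibody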
Parameter binding (% of control): see the listing below.
Kindly provide the numeric value in % only, without the unit symbol.

// binding (% of control) lookup, molecule = O=C(N1CCCCC1)C1(c2ccccc2)CCOCC1 , result: 104

// binding (% of control) lookup, molecule = CCN(CC)CCOC(=O)C(c1ccccc1)c1ccccc1 , result: 99

// binding (% of control) lookup, molecule = O=C(O)CP(=O)(O)O , result: 105

// binding (% of control) lookup, molecule = Clc1ccc2c(c1)CCc1cccnc1C2=C1CCNCC1 , result: 103

// binding (% of control) lookup, molecule = COCC(C)NC(=O)c1ccc(CN2CCc3ccccc3C2)cc1 (centres undefined) , result: 195

// binding (% of control) lookup, molecule = CCCCOc1ccc(CC(=O)NO)cc1 , result: 104

// binding (% of control) lookup, molecule = CCN(CC)c1ccc(C2=NNC(=O)CC2C)cc1[N+](=O)[O-] (centres undefined) , result: 98.9

// binding (% of control) lookup, molecule = COc1cc2cc(C)nc(Cc3cccc4ccccc34)c2cc1OC , result: 101

// binding (% of control) lookup, molecule = CS(=O)(=O)Nc1ccc([N+](=O)[O-])cc1Oc1ccccc1 , result: 106

// binding (% of control) lookup, molecule = O=C(/C=C/c1ccco1)Nc1ccccc1C(=O)O , result: 105

// binding (% of control) lookup, molecule = CC(C)CC(=O)Nc1ccc2oc(-c3ccncc3)nc2c1 , result: 105

Every entry's value here was drawn from PubChem BioAssay.
